Test system: HEK-293T
test_name: Multiplex assay against HEK293T;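 also: share of the cells with healthy nuclei that show this phenotype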
Assay type: toxicity, cell-based
condition_info: human, 12 h, 10 µM, compound concentration 10 uM, replicate 2
Please assign NOT MET whenever Population Tubulin-Different-Phenotype (%) is at or above 80%, and MET whenever it is below.

>>> group("Nc1nc2c(c(N3CCNCC3)n1)CCC1=C2[C@@H]2CCCC[C@@H]2O1")
"NOT MET"
>>> group("CCc1cc2c(cc1CC)CC(NC[C@H](O)c1ccc(O)c3[nH]c(=O)ccc13)C2")
"NOT MET"
>>> group("Cl.Cl.Nc1ncnc2c1c(-c1cccc(OCc3ccccc3)c1)cn2[C@H]1C[C@@H](CN2CCC2)C1")
"MET"
>>> group("O=C(O)c1ccc2cc(-c3ccc(O)c(C45CC6CC(CC(C6)C4)C5)c3)ccc2c1")
"MET"
>>> group("Cc1cn(-c2cc(NC(=O)c3ccc4c(c3)CN(c3cncnc3)C[C@@H]4C)cc(C(F)(F)F)c2)cn1")
"MET"
>>> group("CC(C)(C)c1cnc(CSc2cnc(NC(=O)C3CCNCC3)s2)o1")
"MET"
>>> group("COc1ccc(NS(=O)(=O)c2sc3ccc(Cl)cc3c2C)cc1N1CCNCC1.Cl")
"NOT MET"
>>> group("CNc1oc(-c2cccc3ccccc23)nc1C#N")
"MET"
